system: Human coronary artery smooth muscle cells (SMC); assay: Vascular smooth muscle cell (SMC) antiproliferation assay; format: cell-based; settings: inhibition of proliferation, viable cell count ~68 hours after addition; SMC strain 9557-1; read-out: SMC Strain 9557-1, IC50
Measured Parameter: IC50 (nM)
Enter your answer as a number in nM; do not include the unit.

Lookup: // fetch Human coronary artery smooth muscle cells (SMC) IC50 for O=S(=O)(c1ccccc1)c1c(OCC(COc2no[n+]([O-])c2S(=O)(=O)c2ccccc2)Oc2no[n+]([O-])c2S(=O)(=O)c2ccccc2)no[n+]1[O-] [Example 4]
Found: 9
